Biological target: HIV-1 gp41 (HXB2 strain) (HIV-1 HXB2, UniProt P04578 512-856)
Test: cell-based or functional assay
Bridge positions count the residues as written; N and C are the ends. Square brackets hold non-standard residues; d marks the D form.
Values of IC50 (HXB2), single-cycle viral infectivity assay strictly less than 1000 nM map to label 1, and values of at least 1000 nM map to label 0.

Sample answers from the record:
[[record]]
binder = "Ac-KG[dA][dC][dD][dY][dP][dE][dW][dQ][dW][dL][dC][dA][dA]-NH2 (disulfide 4-13 (inferred); not fully specified (residue 1)) [PEG-PIE7]"
assigned_category = "label 1"

[[record]]
binder = "Ac-[dK]G[dA][dC][dD][dY][dP][dE][dW][dR][dW][dL][dC][dA][dA][dA]-NH2 (disulfide 4-13 (inferred)) [PIE2-AAA]"
assigned_category = "label 0"

[[record]]
binder = "Ac-[dK]G[dA][dC][dD][dY][dP][dE][dW][dQ][dW][dL][dC][dA][dA]-NH2 (disulfide 4-13 (inferred); also: dimer: N-terminal Lys of both peptides joined by Bis-dPEG9 NHS ester crosslinker) [PEG-(PIE7)2]"
assigned_category = "label 1"


Input Ac-[dK][dK]G[dA][dC][dE][dL][dL]G[dW][dE][dW][dA][dW][dL][dC][dA][dA]-NH2 (disulfide 5-16 (inferred)) [D10-p5] ; condition: IC50 (HXB2), single-cycle viral infectivity assay strictly below 1000 nM. Does it hold?
label 0

Determine if Ac-[dK]G[dA][dC][dD][dY][dP][dE][dW][dR][dW][dL][dC][dA][dA]-NH2 (disulfide 4-13 (inferred)) [PIE2] shows IC50 (HXB2), single-cycle viral infectivity assay strictly lower than 1000 nM.
label 0

Below 1000 nM on IC50 (HXB2), single-cycle viral infectivity assay? Entry Ac-[dK]G[dA][dC][dD][dY][dP][dE][dW][dQ][dW][dL][dC][dA][dA]-NH2 (disulfide 4-13 (inferred)) [PIE7]
label 1

# check: IC50 (HXB2), single-cycle viral infectivity assay < 1000 nM for Ac-[dK][dK]G[dA][dC][dD][dY][dP][dE][dW][dR][dW][dL][dC][dA][dA]-NH2 (disulfide 5-14 (inferred)) [2K-PIE2]
label 0

Hello, I'm reviewing records and need to know if IC50 (HXB2), single-cycle viral infectivity assay of Ac-[dK]G[dA][dC][dD][dY][dK][dE][dW][dQ][dW][dL][dC][dA][dA]-NH2 (disulfide 4-13 (inferred)) [PIE8] is below 1000 nM. Could you check?
label 0
